# subjectOfTest: Yer064c (UniProt P40041)
# Sequence: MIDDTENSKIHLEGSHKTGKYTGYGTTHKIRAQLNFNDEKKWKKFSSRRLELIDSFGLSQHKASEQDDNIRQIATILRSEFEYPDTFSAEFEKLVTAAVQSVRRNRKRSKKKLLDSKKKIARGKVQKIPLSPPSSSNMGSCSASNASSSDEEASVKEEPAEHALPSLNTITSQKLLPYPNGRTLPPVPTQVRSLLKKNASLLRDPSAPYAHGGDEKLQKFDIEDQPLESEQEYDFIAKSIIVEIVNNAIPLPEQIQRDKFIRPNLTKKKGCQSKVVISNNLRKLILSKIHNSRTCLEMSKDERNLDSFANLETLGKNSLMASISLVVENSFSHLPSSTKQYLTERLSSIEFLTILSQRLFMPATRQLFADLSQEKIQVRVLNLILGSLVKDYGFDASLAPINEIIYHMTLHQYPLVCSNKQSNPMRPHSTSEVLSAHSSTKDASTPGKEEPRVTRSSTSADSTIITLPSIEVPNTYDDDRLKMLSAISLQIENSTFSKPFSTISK
# assaySummary: PBM E-score (8-mer binding enrichment) (E-score (-0.5 to 0.5)); higher = stronger / more preferred TF binding
# experimentalSetup: protein concentration: 200 nM; construct: GST-full length
The full ranking holds about 33,000 sequences; the median of “E-score (-0.5 to 0.5)” is about -0.036, and the highest 2% start at about 0.37. Many of the other results were omitted from the sample, so the highest values are more common in it than they were.
Classify as follows. Reported PBM E-score greater than or equal to -0.06: yes (1). Reported PBM E-score below: no (0).

{"querySequence": "CCACTAGA", "subjectOfTest": "Yer064c (UniProt P40041)", "groupLabel": "no (0)"}

[ask] Exam item: decide whether the reported PBM E-score for `ATTTAGGG` is at least -0.06.
[reply] yes (1)

[ask] Kindly determine if PBM E-score recorded for `GCCACTCC` is above or exactly -0.06.
[reply] no (0)

[ask] Decide: PBM E-score of `CCTCATTC` >= -0.06?
[reply] no (0)

[ask] Dear colleague, could you confirm whether `TCGACCCA` has PBM E-score at or above -0.06?
[reply] yes (1)

====

# subjectOfTest: Yer064c (UniProt P40041)
# Sequence: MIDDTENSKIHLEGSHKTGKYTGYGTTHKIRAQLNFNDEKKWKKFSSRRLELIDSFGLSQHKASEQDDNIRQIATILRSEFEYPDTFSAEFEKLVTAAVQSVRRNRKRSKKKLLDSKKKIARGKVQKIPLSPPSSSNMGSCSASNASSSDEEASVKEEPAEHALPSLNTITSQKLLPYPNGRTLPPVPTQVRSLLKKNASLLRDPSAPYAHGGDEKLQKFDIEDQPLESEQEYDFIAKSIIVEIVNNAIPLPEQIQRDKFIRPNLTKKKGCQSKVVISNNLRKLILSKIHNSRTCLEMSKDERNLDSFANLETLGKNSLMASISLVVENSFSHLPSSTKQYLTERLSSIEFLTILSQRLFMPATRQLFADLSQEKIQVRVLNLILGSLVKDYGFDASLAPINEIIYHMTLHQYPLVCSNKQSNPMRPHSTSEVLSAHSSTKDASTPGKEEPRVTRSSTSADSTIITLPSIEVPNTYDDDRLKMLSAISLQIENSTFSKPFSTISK
# assaySummary: PBM E-score (8-mer binding enrichment) (E-score (-0.5 to 0.5)); higher = stronger / more preferred TF binding
# experimentalSetup: protein concentration: 200 nM; construct: GST-full length
Whole data set: some 33,000 sequences, median “E-score (-0.5 to 0.5)” near -0.036, cut for the highest 2% near 0.37. This excerpt belongs to a sample that is enriched for the highest values.
propertyName: PBM E-score
Lab note: write the figure by itself, no unit.

{"querySequence": "CGTGAGTA", "subjectOfTest": "Yer064c (UniProt P40041)", "PBM E-score": 0.323}
{"querySequence": "AATCGACT", "subjectOfTest": "Yer064c (UniProt P40041)", "PBM E-score": 0.258}
{"querySequence": "CCAACAAA", "subjectOfTest": "Yer064c (UniProt P40041)", "PBM E-score": -0.069}

Data point: `AGTGAGTC` ; PBM E-score = 0.474

For record `GAGACATA` the listed PBM E-score is 0.334

Recorded result, `ACAATGCT` , PBM E-score: -0.0617

Value of measured PBM E-score for the entry `AGTGAGTA` : 0.355

For record `CGTGAGCC` the listed PBM E-score is 0.0694

Form: sequence = `CGTGAGTC` ; PBM E-score = 0.48

Measured PBM E-score of `GCCTGGGA` : -0.343

The sequence identified as `ATAGGATG` registered its PBM E-score at 0.0522
